- Tested on: experimental allergic encephalomyelitis (EAE) in (SJL/JxBALB/c)FI mice
- method: Blocking of experimental allergic encephalomyelitis by injection with complete adjuvant
- Type: in vivo, mouse
- protocol-conditions: disease score 0 (healthy) to 5 (dead)
result-type: Mean Score
Form: value (number only, do not type unit).

Please give the measured Mean Score for this molecule: AKKYAKKAEKAYAKKAKAAKEKKAYAKKEAKAYKAAEAKKKAKAEAKKYAKEAAKAKKEAYKAEAKKYAKAAKAEKKEYAAAEAKKAEAAKAYKAEAAKAAAKEAAYEA (reversed-phase fraction 2 used for calibration) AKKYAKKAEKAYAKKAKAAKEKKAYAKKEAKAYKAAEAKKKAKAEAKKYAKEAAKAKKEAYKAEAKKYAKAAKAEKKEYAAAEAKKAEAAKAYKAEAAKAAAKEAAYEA 0

Please give the measured Mean Score for this molecule: AKKYAKKEKAYAKKAEKAAKKAEAKAYKAAEAKKKAKAEAKKYAKAAKAEKKEYAAAEAKYKAEAAKKAYKAEAAKAAAKEAAYEA (peptide) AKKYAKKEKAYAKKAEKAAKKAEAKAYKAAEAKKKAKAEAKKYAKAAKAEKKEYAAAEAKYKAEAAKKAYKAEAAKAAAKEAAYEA 0.7

Please give the measured Mean Score for this molecule: AKKYAKKEKAYAKKAEKAAKKAEAKAYKAAEAKKKAKAEAKKYAKAAKAEKKEYAAAEAKYKAEAAKAAAKEAAYEA (peptide) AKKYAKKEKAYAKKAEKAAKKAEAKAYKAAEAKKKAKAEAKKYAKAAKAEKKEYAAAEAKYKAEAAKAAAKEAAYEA 0.2

Please give the measured Mean Score for this molecule: AKKYAKKEKAYAKAKKAEAKAAKKAKAEAKKYAKAAKAEKKEYAAAEAKYKAEAAKAAAKEAAYEA (peptide) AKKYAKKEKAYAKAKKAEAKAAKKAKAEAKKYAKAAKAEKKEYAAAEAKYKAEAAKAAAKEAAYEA 2.8

Source of measurements: patent US6514938B1
